# EXPERIMENTAL TARGET: T1, recombinant human IL-6 (human, UniProt P05231 30-212)
# T1 construct: Bought protein
# T1 sequence (P05231 30-212 limits assumed): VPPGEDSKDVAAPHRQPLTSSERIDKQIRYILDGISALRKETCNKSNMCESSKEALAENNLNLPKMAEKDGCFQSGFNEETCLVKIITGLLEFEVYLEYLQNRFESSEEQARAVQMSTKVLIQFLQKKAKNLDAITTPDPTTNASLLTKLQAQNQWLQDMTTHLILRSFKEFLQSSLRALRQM
# METHOD SUMMARY: SPR Biacore, supernatant Ab on Protein A chip, IL-6 analyte, 25 C
EXPERIMENTAL ENDPOINT: koff (s⁻¹)

| BINDER | SCALE UNIT | NUMBER |
| --- | --- | --- |
| anti-IL-6 antibody, light chain M50D (heavy chain WT) (antibody, V domains shown, See note of m2; also called WT / M50D) VH: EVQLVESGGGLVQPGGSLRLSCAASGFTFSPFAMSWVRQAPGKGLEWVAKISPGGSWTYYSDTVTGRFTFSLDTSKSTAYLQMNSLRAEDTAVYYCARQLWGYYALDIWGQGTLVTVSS VL: DIQLTQSPSSLSASVGDRVTITCSASISVSYMYWYQQKPGKAPKLLIYDDSNLASGVPSRFSGSGSGTDFTLTISSLQPEDFATYYCMQWSGYPYTFGQGTKVEIK | s⁻¹ | 0.000112 |
| anti-IL-6 antibody, light chain Y95G (heavy chain WT) (antibody, V domains shown, See note of m2; also called WT / Y95G) VH: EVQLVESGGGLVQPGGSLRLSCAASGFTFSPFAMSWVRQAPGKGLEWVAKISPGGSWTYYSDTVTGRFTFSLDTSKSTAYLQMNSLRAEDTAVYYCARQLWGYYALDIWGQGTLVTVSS VL: DIQLTQSPSSLSASVGDRVTITCSASISVSYMYWYQQKPGKAPKLLIYDMSNLASGVPSRFSGSGSGTDFTLTISSLQPEDFATYYCMQWSGYPGTFGQGTKVEIK | s⁻¹ | 0.000338 |
| anti-IL-6 antibody, light chain S55Y (heavy chain WT) (antibody, V domains shown, See note of m2; also called WT / S55Y) VH: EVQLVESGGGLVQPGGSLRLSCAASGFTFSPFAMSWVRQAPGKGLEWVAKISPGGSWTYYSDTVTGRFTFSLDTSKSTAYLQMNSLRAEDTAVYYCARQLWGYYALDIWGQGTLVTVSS VL: DIQLTQSPSSLSASVGDRVTITCSASISVSYMYWYQQKPGKAPKLLIYDMSNLAYGVPSRFSGSGSGTDFTLTISSLQPEDFATYYCMQWSGYPYTFGQGTKVEIK | s⁻¹ | 0.000201 |
| anti-IL-6 antibody, light chain M88V (heavy chain WT) (antibody, V domains shown, See note of m2; also called WT / M88V) VH: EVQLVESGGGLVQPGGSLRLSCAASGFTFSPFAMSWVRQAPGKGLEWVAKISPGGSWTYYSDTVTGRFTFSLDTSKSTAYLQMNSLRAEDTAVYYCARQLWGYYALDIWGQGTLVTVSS VL: DIQLTQSPSSLSASVGDRVTITCSASISVSYMYWYQQKPGKAPKLLIYDMSNLASGVPSRFSGSGSGTDFTLTISSLQPEDFATYYCVQWSGYPYTFGQGTKVEIK | s⁻¹ | 0.000107 |
| anti-IL-6 antibody, light chain S55R (heavy chain WT) (antibody, V domains shown, See note of m2; also called WT / S55R) VH: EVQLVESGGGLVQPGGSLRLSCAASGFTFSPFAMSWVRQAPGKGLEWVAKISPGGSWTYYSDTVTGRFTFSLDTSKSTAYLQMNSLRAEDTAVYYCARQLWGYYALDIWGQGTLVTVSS VL: DIQLTQSPSSLSASVGDRVTITCSASISVSYMYWYQQKPGKAPKLLIYDMSNLARGVPSRFSGSGSGTDFTLTISSLQPEDFATYYCMQWSGYPYTFGQGTKVEIK | s⁻¹ | 0.000107 |
